The measured values listed here are drawn from PubChem BioAssay AID1918938.

- Tested on: 556581-035-R-J1-PDC complex spheroid viability
- assayProcedure: Anticancer human tumor 556581-035-R-J1-PDC patient-derived ovarian carcinoma cell line growth inhibition; active = viability on the fitted dose curve at most 10% of control; inactive = the rest
- conditionLabel: second compound 10 µM; first compound 0.949 µM
Please reply with one of these outcomes: 1.0 for active, 0.0 for inactive

Here are 8 molecules together with their reported answers.
molecule: CCN(c1cc(-c2ccc(CN3CCOCC3)cc2)cc(C(=O)NCc2c(C)cc(C)[nH]c2=O)c1C)C1CCOCC1 + NC1CC1c1ccc(-c2cccc(O)c2)cc1
assignedCategory: 0.0
//
molecule: COc1cc(C2c3cc4c(cc3C(OC3OC5COC(C)OC5C(O)C3O)C3COC(=O)C23)OCO4)cc(OC)c1O (stereo not given) + NC1CC1c1ccc(-c2cccc(O)c2)cc1
assignedCategory: 0.0
//
molecule: Nc1ccccc1NC(=O)c1ccc(CNC(=O)OCc2cccnc2)cc1 + NC1CC1c1ccc(-c2cccc(O)c2)cc1
assignedCategory: 0.0
//
molecule: Nc1ccccc1NC(=O)c1ccc(CNC(=O)OCc2cccnc2)cc1 + NC1CCC(NC2CC2c2ccccc2)CC1
assignedCategory: 1.0
//
molecule: COc1cc(C2c3cc4c(cc3C(OC3OC5COC(C)OC5C(O)C3O)C3COC(=O)C23)OCO4)cc(OC)c1O (stereo not given) + NC1CCC(NC2CC2c2ccccc2)CC1
assignedCategory: 0.0
//
molecule: O=C(C=Cc1cccc(S(=O)(=O)Nc2ccccc2)c1)NO + NC1CC1c1ccc(-c2cccc(O)c2)cc1
assignedCategory: 1.0
//
molecule: NS(=O)(=O)OCC1CC(n2ccc3c(NC4CCc5ccccc54)ncnc32)CC1O (stereo not given) + NC1CC1c1ccc(-c2cccc(O)c2)cc1
assignedCategory: 0.0
//
molecule: CCN(c1cc(-c2ccc(CN3CCOCC3)cc2)cc(C(=O)NCc2c(C)cc(C)[nH]c2=O)c1C)C1CCOCC1 + NC1CCC(NC2CC2c2ccccc2)CC1
assignedCategory: 0.0

IN: How was O=C(C=Cc1cccc(S(=O)(=O)Nc2ccccc2)c1)NO + NC1CCC(NC2CC2c2ccccc2)CC1 classified in this test?
OUT: 1.0

IN: How was NS(=O)(=O)OCC1CC(n2ccc3c(NC4CCc5ccccc54)ncnc32)CC1O (stereo not given) + NC1CCC(NC2CC2c2ccccc2)CC1 classified in this test?
OUT: 0.0

====

- Tested on: 556581-035-R-J1-PDC complex spheroid viability
- assayProcedure: Anticancer human tumor 556581-035-R-J1-PDC cell line growth inhibition;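 also: spheroids exposed to agents for seven days; 100% = DMSO vehicle control wells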
- conditionLabel: second compound 0.1 µM; first compound 0.001 µM; hits give low values
quantityKind: viability, T/C (%)
// return numeric value only (unit: %, not printed)

Study these solved cases before continuing.
molecule: CC(C)CC(NC(=O)CNC(=O)c1cc(Cl)ccc1Cl)B1OC(=O)CC(CC(=O)O)(C(=O)O)O1 (stereo not drawn) + NC1CC1c1ccc(-c2cccc(O)c2)cc1
quantityKind: viability, T/C
reportedValue: 95.6

molecule: Cn1ncnc1C1c2n[nH]c(=O)c3cc(F)cc(c23)NC1c1ccc(F)cc1 (stereo not drawn) + NC1CC1c1ccc(-c2cccc(O)c2)cc1
quantityKind: viability, T/C
reportedValue: 89.6

molecule: CC(C)CC(NC(=O)CNC(=O)c1cc(Cl)ccc1Cl)B1OC(=O)CC(CC(=O)O)(C(=O)O)O1 (stereo not drawn) + NC1CCC(NC2CC2c2ccccc2)CC1
quantityKind: viability, T/C
reportedValue: 99.5

molecule: CC(C)CC(NC(=O)C(Cc1ccccc1)NC(=O)c1cnccn1)B(O)O (stereo not drawn) + NC1CC1c1ccc(-c2cccc(O)c2)cc1
quantityKind: viability, T/C
reportedValue: 0.66

molecule: Cn1ncnc1C1c2n[nH]c(=O)c3cc(F)cc(c23)NC1c1ccc(F)cc1 (stereo not drawn) + NC1CCC(NC2CC2c2ccccc2)CC1
quantityKind: viability, T/C
reportedValue: 105

molecule: CC[C@@]1(O)C(=O)OCc2c1cc1n(c2=O)Cc2cc3c(CN(C)C)c(O)ccc3nc2-1 + NC1CC1c1ccc(-c2cccc(O)c2)cc1
quantityKind: viability, T/C
reportedValue: 88.2

molecule: CC(C)CC(NC(=O)C(Cc1ccccc1)NC(=O)c1cnccn1)B(O)O (stereo not drawn) + NC1CCC(NC2CC2c2ccccc2)CC1
quantityKind: viability, T/C
reportedValue: 0.11

IN: What measured viability, T/C goes with CC[C@@]1(O)C(=O)OCc2c1cc1n(c2=O)Cc2cc3c(CN(C)C)c(O)ccc3nc2-1 + NC1CCC(NC2CC2c2ccccc2)CC1 ?
OUT: 91.5
